# Protocol Summary: qHTS of pediatric cancer cell lines to identify multiple opportunities for drug repurposing: Primary screen for MG 63 (6-TG R) cells (AID 1347105); further: nearly all actives have a fitted effect of over 50% in size
# Experimental Parameters: MG 63 (6-TG R) viability, CellTiter-Glo, 48 h; series mostly up to 46 µM
Inconclusive results are not listed. The source made the active and inactive calls. The call rests on the fitted dose curve; in most records, active means well fitted cell-killing curve with a large enough effect; inconclusive means small, poorly fitted or top-dose-only effect; inactive means no such curve, though single readings can be large or run the other way.
Permitted responses: true for active, false for inactive

Would you mind telling me which call this test gave CCC(C(=O)NC(=O)NC(C)=O)c1ccccc1 (configuration not stated) ?
false

Would you mind telling me which call this test gave Cc1ccc(O)cc1 ?
false

Would you mind telling me which call this test gave c1ccc2c(c1)CCc1ccccc1N2 ?
false

Would you mind telling me which call this test gave O=C(NO)c1ccccc1 ?
false

Would you mind telling me which call this test gave CC(=O)Nc1c(I)c(NC(C)=O)c(I)c(C(=O)O)c1I ?
false

Would you mind telling me which call this test gave O=C1Cc2cc(Cl)ccc2N1 ?
false

Would you mind telling me which call this test gave COc1ccccc1N1CCN(CC(O)COc2cc(OC)c(OC)c(OC)c2)CC1 (configuration not stated) ?
false

Would you mind telling me which call this test gave O=C(NN1CCCC1)NS(=O)(=O)c1ccc(Cl)cc1 ?
false

Would you mind telling me which call this test gave Cc1c(F)cc2c(=O)c(C(=O)O)cn3c2c1CCC3C (configuration not stated) ?
false

Would you mind telling me which call this test gave CC(=O)Nc1ccc(S(=O)(=O)Nc2cc(C)on2)cc1 ?
false

Would you mind telling me which call this test gave CCCCN(CCN(CCCC)C(=O)N1CCOCC1)C(=O)N1CCOCC1 ?
false

Would you mind telling me which call this test gave CN1CCCN(C(c2ccccc2)c2ccc(Cl)cc2)CC1 (configuration not stated) ?
false

Would you mind telling me which call this test gave CNC[C@H](O)[C@@H](O)[C@H](O)[C@H](O)CO ?
false

Would you mind telling me which call this test gave CCCc1ncc(C(=O)O)s1 ?
false

Would you mind telling me which call this test gave CC(C)(C)c1nnc(NS(=O)(=O)c2ccccc2)s1 ?
false

Would you mind telling me which call this test gave OCCCc1ccccc1 ?
false

Would you mind telling me which call this test gave CCOCCn1c(C2CCN(CCc3ccc(C(C)(C)C(=O)O)cc3)CC2)nc2ccccc21 ?
false

Would you mind telling me which call this test gave CCc1cc2cc(OC)c(OC)cc2c(Cc2ccccc2)n1 ?
false

Would you mind telling me which call this test gave O=[N+]([O-])c1ccc(O)c2ncccc12 ?
true

Would you mind telling me which call this test gave NS(=O)(=O)c1ccc(N2CCCCS2(=O)=O)cc1 ?
false

Would you mind telling me which call this test gave CCOC(=O)C1=C(C)NC(C)=C(C(=O)OCC)C1c1ccccc1/C=C/C(=O)OC(C)(C)C ?
true

Would you mind telling me which call this test gave CN1C(=O)CC(C)(c2ccccc2)C1=O (configuration not stated) ?
false

Would you mind telling me which call this test gave CC(C)(C)CC(=O)OCC(=O)[C@@]1(O)CC[C@H]2[C@@H]3CCC4=CC(=O)C=C[C@]4(C)[C@H]3[C@@H](O)C[C@@]21C ?
false

Would you mind telling me which call this test gave CC(C)C[C@H](NC(=O)CNC(=O)[C@H](Cc1ccc(O)cc1)NC(=O)[C@H](CO)NC(=O)[C@H](Cc1c[nH]c2ccccc12)NC(=O)[C@H](Cc1cnc[nH]1)NC(=O)[C@@H]1CCC(=O)N1)C(=O)N[C@@H](CCCN=C(N)N)C(=O)N1CCC[C@H]1C(=O)NCC(N)=O (stereo in doubt) ?
false

Would you mind telling me which call this test gave O=C(O)C1CCC1 ?
false

Would you mind telling me which call this test gave CN1[C@@H]2CC[C@H]1CC(NC(=O)n1c(=O)[nH]c3ccccc31)C2 (some centres not stated) ?
false

Would you mind telling me which call this test gave CCCCCOc1ccc(C2SC(=O)NC2=O)cc1OCC (configuration not stated) ?
false

Would you mind telling me which call this test gave CN1CCC(=C2c3ccccc3CCc3cccnc32)CC1 ?
false

Would you mind telling me which call this test gave Cc1cccc(C)c1NC(=O)c1cc(S(N)(=O)=O)c(Cl)cc1O ?
false

Would you mind telling me which call this test gave COC(=O)c1cc(Cl)ccc1NS(=O)(=O)C(F)(F)F ?
false

Would you mind telling me which call this test gave CCCCCN(CCCOC)C(=O)C(CCC(=O)O)NC(=O)c1ccc(Cl)c(Cl)c1 (configuration not stated) ?
false

Would you mind telling me which call this test gave CCCCOCCOC(=O)c1cccnc1 ?
false

Would you mind telling me which call this test gave CCOC(=O)c1ccc(O)c(O)c1 ?
false

Would you mind telling me which call this test gave CC(=O)c1cc2ccccc2s1 ?
false

Would you mind telling me which call this test gave O=C1OC2(c3ccccc31)c1cc(I)c(O)c(I)c1Oc1c2cc(I)c(O)c1I ?
false

Would you mind telling me which call this test gave Cc1cc(O)c(C)c(C)c1O ?
false

Would you mind telling me which call this test gave CCCCCC1Nc2cc(C(F)(F)F)c(S(N)(=O)=O)cc2S(=O)(=O)N1 (configuration not stated) ?
false

Would you mind telling me which call this test gave O=C(O)Cc1ccccc1Oc1ccc(Cl)cc1Cl ?
false

Would you mind telling me which call this test gave CCS(=O)(=O)c1ccc(OC)c(C(=O)OC)c1 ?
false

Would you mind telling me which call this test gave Cc1cccc(N(C)C(=S)Oc2ccc3c(c2)C2CCC3C2)c1 (configuration not stated) ?
false

Would you mind telling me which call this test gave CC(=O)[C@H]1CC[C@H]2[C@@H]3C=CC4=CC(=O)CC[C@@]4(C)[C@@H]3CC[C@]12C ?
false

Would you mind telling me which call this test gave N#Cc1cc(NC(=O)C(=O)O)c(Cl)c(NC(=O)C(=O)O)c1 ?
false

Would you mind telling me which call this test gave CCCOc1ccc2c(c1)CC[C@@H]1[C@@H]2CC[C@]2(C)C(OC)CC[C@@H]12 (some centres not stated) ?
false

Would you mind telling me which call this test gave N[C@@H](Cc1cc(I)c(O)c(I)c1)C(=O)O ?
false

Would you mind telling me which call this test gave O=C(CCCl)NCCc1ccccc1 ?
false

Would you mind telling me which call this test gave CC1CC(=O)NN=C1c1ccc(NCC(C)(C)NCC(O)COc2cc(Cl)ccc2C#N)cc1 (configuration not stated) ?
false

Would you mind telling me which call this test gave CCn1ccc(NS(=O)(=O)c2ccc(N)cc2)nc1=O ?
false

---

# Protocol Summary: qHTS for Activators of Parkin Expression: LOPAC Validation Assay (NLuc Reporter) (AID 720572)
# Experimental Parameters: Parkin promoter NanoLuc reporter cells, luminescence, percent of positive control, DMSO as zero; series mostly up to 46.1 µM
Results filed as inconclusive are left out. Active and inactive are the calls of the source. Calls come from the whole dose curve; as a rule, active = well fitted activation curve with a large enough effect; inconclusive = small, poorly fitted or top-dose-only effect; inactive = flat fitted curve, though single readings scatter.
Observed Property: outcome

Check out these entries, answers already filled in.
# Input Smiles, outcome
records = [
    ("O=[N+]([O-])c1ccc(-c2nc(-c3ccc(F)cc3)c(-c3ccncc3)[nH]2)cc1", "inactive"),
    ("Clc1ccc2c(c1)N=C(N1CCNCC1)c1ccccc1N2", "inactive"),
    ("COc1cccc2c1[C@@H]1CN(CCCCn3c(=O)[nH]c4c(sc5ncc(-c6ccccc6)nc54)c3=O)C[C@@H]1CO2", "inactive"),
    ("Nc1ncnc2n[nH]c(Nc3ccc(F)cc3)c12", "inactive"),
    ("Cn1cnc2c(NCc3ccccc3)nc(NCCO)nc21", "inactive"),
    ("NC(N)=NCCCCN=C(N)N", "inactive"),
    ("COc1ccccc1N1CCN(CCN2C(=O)CC3(CCCC3)CC2=O)CC1", "inactive"),
    ("N[C@@H](Cn1ccc(=O)c(O)c1)C(=O)O", "inactive"),
]

Any idea what outcome was measured for O=C1NC(c2cccc([N+](=O)[O-])c2)=CCN1c1ccccc1O ?
inactive

Any idea what outcome was measured for Cc1nn(-c2ccccc2)c(C)c1/C=N/N1CCN(Cc2ccccc2)CC1 ?
inactive

Any idea what outcome was measured for COC(=O)C1=CO[C@@H](O)[C@@H]2C(CO)=CC[C@H]12 ?
inactive

---

# Protocol Summary: Drug repurposing screens with cells derived from glioblastoma tumor samples (AID 1345199); further: potency means the concentration at half of the fitted maximal effect; nearly all actives have a fitted effect of over 40% in size
# Experimental Parameters: GBM patient neurospheres viability, ATP luminescence, 48 h; tumour line A
Records with an inconclusive call do not appear. Active and inactive are the calls of the source. Calls follow the shape of the dose curve; as a rule, active = well fitted inhibition curve with a large enough effect; inconclusive = small, poorly fitted or top-dose-only effect; inactive = flat fitted curve, though single readings scatter.
Observed Property: Potency

Any idea what Potency was measured for CC(C)C(C)(C)C(C)(C)C(C)(C)S ?
28.2 µM (active)

Any idea what Potency was measured for CCO[C@H](Cc1ccc(OCCc2ccc(OS(C)(=O)=O)cc2)cc1)C(=O)O ?
14.1 µM (active)

Any idea what Potency was measured for CN1CCC(N(Cc2cccs2)c2ccccc2)CC1 ?
10 µM (active)

Any idea what Potency was measured for CCN1C(=O)c2ccccc2C1Nc1ccc(OCCN2CCCCC2)cc1 (stereo unspecified) ?
7.94 µM (active)

Any idea what Potency was measured for C=CCOc1cc(Cl)ccc1C(=O)NCCN(CC)CC ?
10 µM (active)

Any idea what Potency was measured for CN1CCCN(C(c2ccccc2)c2ccc(Cl)cc2)CC1 (stereo unspecified) ?
4.47 µM (active)

Any idea what Potency was measured for CCCCC/C=C\C/C=C\CCCCCCCC(=O)NC(C)c1ccccc1 (stereo unspecified) ?
11.2 µM (active)

Any idea what Potency was measured for NC(=O)COCCN1CCN(C(c2ccccc2)c2ccc(Cl)cc2)CC1 (stereo unspecified) ?
5.01 µM (active)

Any idea what Potency was measured for Cc1cccc(N(C)C(=S)Oc2ccc3c(c2)CCC3)c1 ?
17.8 µM (active)

Any idea what Potency was measured for O=C1OC2(c3ccccc31)c1cc(I)c(O)c(I)c1Oc1c2cc(I)c(O)c1I ?
11.2 µM (active)

Any idea what Potency was measured for C[C@@H](C1=C(CCN(C)C)Cc2ccccc21)c1ccccn1 ?
17.8 µM (active)
